# measurement.protocol: Full PK analysis and oral administration, brain and plasma levels
# Assay type: in vivo, mice
# experimental.setup: mouse; plasma AUC after oral 5 mg/Kg versus i.v. 2 mg/Kg
measured.endpoint: bioavailability

Which bioavailability is listed for Nc1scc2c(C(=O)NC3CC3)nn(-c3ccc(Cl)cc3)c(=O)c12 ?
~64%

----------
# system.tested: K18PL tau (Homo sapiens, UniProt P10636, P618L)
# Construct: (K18PL; amino acids 244-369); made in house
# Sequence (P10636 561-686 P618L): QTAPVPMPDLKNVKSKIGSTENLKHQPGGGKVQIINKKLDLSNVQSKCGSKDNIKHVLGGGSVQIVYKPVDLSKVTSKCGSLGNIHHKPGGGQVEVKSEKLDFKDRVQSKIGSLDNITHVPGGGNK
# measurement.protocol: K18PL tau centrifugation (sedimentation) assay, SDS-PAGE densitometry
# Assay type: biochemical
# experimental.setup: Table 3; K18PL tau centrifugation assay
Listing: Tau Cent. Assay % Soluble of selected compounds
Hi! Could you send only the number? It should be in %, unit omitted.

CCOC(=O)c1nn(-c2ccccc2)c(=O)c2c(NC(=O)c3ccccc3)scc12	2
NC(=O)c1nn(-c2ccccc2)c(=O)c2c(N)scc12	89
CCOC(=O)c1nn(-c2ccc(Cl)c(Cl)c2)c(=O)c2c(N)scc12	12
Nc1scc2c(C(=O)N3CCOCC3)nn(-c3ccccc3)c(=O)c12	89
Nc1scc2c(C(=O)O)nn(-c3ccccc3)c(=O)c12	84
CCOC(=O)c1nn(-c2ccc(Cl)cc2)c(=O)c2c(N)scc12	62
Nc1nn(-c2ccccc2)c(=O)c2c(N)scc12	86
CCOC(=O)c1ccc(-n2nc(C(=O)OCC)c3csc(N)c3c2=O)cc1	23

Which Tau Cent. Assay % Soluble is listed for CCOC(=O)c1nn(-c2ccccc2)c(=O)c2c(N)scc12 ?
55

// repeat for COC(=O)c1nn(-c2ccc(F)cc2)c(=O)c2c(N)scc12 and report
64

// repeat for CCOC(=O)c1nn(-c2ccc(OC)cc2)c(=O)c2c(N)scc12 and report
64

----------
Listing: inhibition at 80 µM of selected molecules
# system.tested: Aβ(1-42) (Homo sapiens, UniProt P05067)
# Construct: Synthetic Aβ(1-42) peptide (rPeptide); purchased rPeptide
# Sequence (P05067 672-713 limits assumed): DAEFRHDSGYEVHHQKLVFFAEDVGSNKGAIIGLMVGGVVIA
# measurement.protocol: Aβ(1-42) fibrillization assay (ThT)
# Assay type: biochemical
# experimental.setup: Table 3; highest tested concentration (80 μM); read-out: Aβ42 ThT Assay % Inhib.
Hi! Could you send only the number? It should be in %, unit omitted.

Solved cases (4 shown):
Nc1scc2c(C(=O)O)nn(-c3ccccc3)c(=O)c12	20
Nc1nn(-c2ccccc2)c(=O)c2c(N)scc12	21
CCOC(=O)c1nn(-c2ccc(OC)cc2)c(=O)c2c(N)scc12	28
CCOC(=O)c1nn(-c2ccccc2)c(=O)c2c(NC(=O)c3ccccc3)scc12	-7

Next item in the queue.
Which inhibition at 80 µM is listed for CCOC(=O)c1nn(-c2ccc(Cl)c(Cl)c2)c(=O)c2c(N)scc12 ?
6

----------
Listing: inhibition at 80 µM of selected compounds
# system.tested: Aβ(1-42) (Homo sapiens, UniProt P05067)
# Construct: Synthetic Aβ(1-42) peptide (rPeptide); purchased rPeptide
# measurement.protocol: Aβ(1-42) fibrillization assay (ThT)
# Format: biochemical
# experimental.setup: Table 3; highest tested concentration (80 μM); read-out: Aβ42 ThT Assay % Inhib.
Hi! Could you send only the number? It should be in %, unit omitted.

COc1ccc(-n2nc(C(=O)O)c3csc(N)c3c2=O)cc1	1
CCN(CC)C(=O)c1nn(-c2ccc(OC)cc2)c(=O)c2c(N)scc12	35
CCOC(=O)c1nn(-c2ccc(Cl)cc2)c(=O)c2c(N)scc12	41

Next item in the queue.
Which inhibition at 80 µM is listed for Nc1scc2c(C(=O)NCc3ccccc3)nn(-c3ccccc3)c(=O)c12 ?
27

----------
# system.tested: K18PL tau (Homo sapiens, UniProt P10636, P618L)
# Construct: (K18PL; amino acids 244-369); made in house
# measurement.protocol: Heparin-induced K18PL tau fibrillization assay monitored by ThT fluorescence
# Assay type: biochemical
# experimental.setup: Table 5; read-out: K18PL (ThT) IC50 value
Listing: pIC50 of selected molecules
Please treat pIC50 as minus the base-10 logarithm of the molar concentration.

CC(C)OC(=O)c1nn(-c2ccc(Cl)cc2)c(=O)c2c(N)scc12	5.82

Next item in the queue.
Which pIC50 is listed for CCN(C)C(=O)c1nn(-c2ccc(Cl)cc2)c(=O)c2c(N)scc12 ?
5.17

----------
Listing: melting point of selected molecules

Solved cases (8 shown):
CCOC(=O)c1nn(-c2ccc(N(C)C)cc2)c(=O)c2c(N)scc12	211 to 213 °C
CCOC(=O)c1nn(-c2cccc(Br)c2)c(=O)c2c(N)scc12	163 to 165 °C
Nc1scc2c(C(=O)O)nn(-c3ccc(Cl)cc3)c(=O)c12	> 300 °C
CC(C)OC(=O)c1nn(-c2ccc(Cl)cc2)c(=O)c2c(N)scc12	118 to 120 °C
CCOC(=O)c1nn(-c2cccc(C)c2)c(=O)c2c(N)scc12	190 to 191 °C
CCOC(=O)c1cccc(-n2nc(C(=O)OCC)c3csc(N)c3c2=O)c1	159 to 160 °C
CCOC(=O)c1nn(-c2ccc(N=[N+]=[N-])cc2)c(=O)c2c(N)scc12	169 to 170 °C
CCOC(=O)c1nn(-c2ccc(Cl)cc2)c(=O)c2c(N)scc12	189 to 191 °C

Next item in the queue.
Which melting point is listed for CCOC(=O)c1nn(-c2ccc(NC)cc2)c(=O)c2c(N)scc12 ?
211 to 213 °C

----------
# measurement.protocol: Turbidimetric solubility in fibrillization buffer
# Type: physicochemical
# experimental.setup: 100 mM NaOAc pH 7.0 fibrillization buffer, 1% DMSO
Listing: Water Solubility of selected compounds
Hi! Could you send only the number? It should be in µM, unit omitted.

Nc1scc2c(C(=O)NC3CC3)nn(-c3ccc(Cl)cc3)c(=O)c12	32
CNC(=O)c1nn(-c2ccc(Cl)cc2)c(=O)c2c(N)scc12	13
CCNC(=O)c1nn(-c2ccc(Cl)cc2)c(=O)c2c(N)scc12	32
CCOC(=O)c1nn(-c2ccc(Cl)cc2)c(=O)c2c(N)scc12	13
CC(C)OC(=O)c1nn(-c2ccc(Cl)cc2)c(=O)c2c(N)scc12	32

Which Water Solubility is listed for CC(C)NC(=O)c1nn(-c2ccc(Br)cc2)c(=O)c2c(N)scc12 ?
13

// repeat for CC(C)NC(=O)c1nn(-c2ccc(Cl)cc2)c(=O)c2c(N)scc12 and report
32

// repeat for CCN(C)C(=O)c1nn(-c2ccc(Cl)cc2)c(=O)c2c(N)scc12 and report
80

// repeat for CN(C)C(=O)c1nn(-c2ccc(Cl)cc2)c(=O)c2c(N)scc12 and report
32

----------
# system.tested: K18PL tau (Homo sapiens, UniProt P10636, P618L)
# Construct: (K18PL; amino acids 244-369); made in house
# measurement.protocol: K18PL tau centrifugation (sedimentation) assay, SDS-PAGE densitometry
# Type: biochemical
# experimental.setup: Table 4; K18PL tau centrifugation assay
measured.endpoint: Tau Cent. Assay % Soluble (%)
Hi! Could you send only the number? It should be in %, unit omitted.

Solved cases (5 shown):
Nc1scc2c(C(=O)O)nn(-c3ccc(O)cc3)c(=O)c12	70
CCOC(=O)c1nn(-c2ccccc2Br)c(=O)c2c(N)scc12	66
Nc1scc2c(C(=O)O)nn(-c3cccc(Cl)c3)c(=O)c12	71
Nc1scc2c(-c3ccccc3)nn(-c3ccc(Cl)cc3)c(=O)c12	44
CCOC(=O)c1nn(-c2ccc(Cl)cc2)c(=O)c2c(N)sc(Br)c12	62

Which Tau Cent. Assay % Soluble is listed for Nc1scc2c(C(=O)O)nn(-c3ccc(F)cc3)c(=O)c12 ?
83

// repeat for CCOC(=O)c1nn(-c2ccc([N+](=O)[O-])cc2)c(=O)c2c(N)scc12 and report
59

// repeat for CCOC(=O)c1nn(-c2cccc(Cl)c2)c(=O)c2c(N)scc12 and report
71

----------
# system.tested: K18PL tau (Homo sapiens, UniProt P10636, P618L)
# Construct: (K18PL; amino acids 244-369); made in house
# measurement.protocol: Heparin-induced K18PL tau fibrillization assay monitored by ThT fluorescence
# Type: biochemical
# experimental.setup: Table 4; logarithm of IC50, K18PL tau ThT fluorescence inhibition; read-out: Tau ThT Assay Log IC50 (converted)
measured.endpoint: IC50

Nc1scc2c(C(=O)NCCO)nn(-c3ccc(Cl)cc3)c(=O)c12 [CNDR-51433]	3.98 µM
NNC(=O)c1nn(-c2ccc(Cl)cc2)c(=O)c2c(N)scc12 [CNDR-51378]	3.16 µM
CCOC(=O)c1nn(-c2ccc(Cl)cc2)c(=O)c2c(NC)scc12 [CNDR-51360]	5.01 µM
Nc1scc2c(C(=O)O)nn(-c3ccc(Br)cc3)c(=O)c12 [CNDR-51389]	3.16 µM

Next item in the queue.
Which IC50 is listed for CCOC(=O)c1cccc(-n2nc(C(=O)OCC)c3csc(N)c3c2=O)c1 [CNDR-51420] ?
2 µM
